Tested on: ACHN renal
assayProtocol: NCI tumour cell line growth inhibition, 48 h
Is TGI at least 20 µM? Then condition met. If not, condition not met.

See these solved cases before continuing.
- molecule: "CC(=O)/C=C/C1=C(c2csc3ccccc23)c2ccccc2CC1"
  experimentalTarget: "ACHN renal"
  label: "condition met"
- molecule: "COC1=CC(c2ccc[nH]2)=N/C1=C\\c1[nH]c(C)c(CC(=O)OCc2ccccc2)c1C"
  experimentalTarget: "ACHN renal"
  label: "condition not met"
- molecule: "CC(C)=CC(=O)N[C@H]1CC[C@]2(C)C3CC[C@]4(C)C(C(C)N(C)C)=CCC4C3CCC2[C@H]1O (some centres not stated)"
  experimentalTarget: "ACHN renal"
  label: "condition met"
- molecule: "COc1cc(NS(C)(=O)=O)ccc1NCc1c2ccccc2nc2ccccc12"
  experimentalTarget: "ACHN renal"
  label: "condition met"
- molecule: "COC(=O)CNC(=O)CCC(C)[C@H]1CCC2C3C(C[C@H](OC(C)=O)[C@@]21C)[C@@]1(C)CCC2(C[C@H]1C[C@H]3OC(C)=O)OOC1(CC[C@]3(C)C4C[C@H](OC(C)=O)[C@@]5(C)C(CC[C@@H]5C(C)CCC(=O)NCC(=O)OC)C4[C@H](OC(C)=O)C[C@@H]3C1)OO2 (some centres not stated)"
  experimentalTarget: "ACHN renal"
  label: "condition not met"

Prompt: Is it the case that CN(C)CCCC1(c2ccc(F)cc2)OCc2cc(-c3cc4ccccc4s3)ccc21 (configuration not stated) has TGI reaching or exceeding 20 µM?
Response: condition not met

Prompt: Check if TGI >= 20 µM (inclusive). Item: `CC(=O)O[C@H]1C[C@@H](OC(C)=O)[C@@](C)(O)[C@@H]2[C@@H](OC(C)=O)[C@@]3(O)[C@H](/C=C(/CO)[C@H]4O[C@H]4[C@@H](OC(C)=O)[C@@]12C)OC(=O)[C@@H]3C`
Response: condition met

Prompt: Hi, just wondering whether `Cc1ccc(S(=O)(=O)c2ccc(C)cc2[N+](=O)[O-])cc1` shows TGI of 20 µM or higher.
Response: condition met

Prompt: For this molecule, is measured TGI 20 µM or higher? COC(=O)c1c(C)cccc1C1CN=NC12Cc1cc(C)cc(C)c1C2=O (configuration not stated)
Response: condition met

Prompt: Assess whether reported TGI for O=C(c1cccnc1)N1N=C(c2ccccc2)CC1(O)c1cc(F)c(Cl)cc1Cl (configuration not stated) sits at 20 µM or higher.
Response: condition met

From: PubChem BioAssay (NCI)
